RUN DESCRIPTION: NCI Yeast Anticancer Drug Screen. Data for the sgs1 mgt1 strain (AID 161);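 note: 0% = growth of cultures given vehicle only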
CONDITION PARAMETERS: S. cerevisiae sgs1 mgt1 strain, at 50.0 µM, hits give high values
Experimental: Growth inhibition of yeast strains with defined genetic alterations is measured as a screen for potential anti-cancer activity. Selected strains with alterations in DNA damage repair or cell cycle control were exposed to compounds and growth inhibition was measured relative to vehicle treated controls. The strain used in this assay is sgs1 mgt1
About 79,000 compounds went through this panel and 15% of them were active in at least one assay; those are over-represented in the sample as a whole. Active and inactive are the calls of the source. Cut-off read from the data, not from the text of the source: active = growth inhibition above about 70%; inactive = the rest.
METRIC: growth inhibition

>  <MOLECULE>
CN(C)c1ccc(-c2cc(C(=O)O)c3cc(I)ccc3n2)c(Cl)c1

>  <ASSAY VALUE>
36.5% (inactive)

$$$$
>  <MOLECULE>
N#CC(F)(F)C(F)(F)C(F)(F)C(F)(F)C(F)(F)C(F)(F)C(F)(F)F

>  <ASSAY VALUE>
-11.2% (inactive)

$$$$
>  <MOLECULE>
O=c1[nH]c2cc(Cl)ccc2nc1/C=C(\O)c1ccco1

>  <ASSAY VALUE>
-16.1% (inactive)

$$$$
>  <MOLECULE>
COc1ccc(C(=O)CCC(=O)O)c(C)c1

>  <ASSAY VALUE>
-0.85% (inactive)

$$$$
>  <MOLECULE>
Nc1ccc(N(S(=O)(=O)c2ccccc2)S(=O)(=O)c2ccccc2)c(Cl)c1

>  <ASSAY VALUE>
82% (active)

$$$$
>  <MOLECULE>
C=CC1CNCCC1CCC(=O)c1ccnc2ccc(OC)cc12 (centres undefined)

>  <ASSAY VALUE>
-1.2% (inactive)

$$$$
>  <MOLECULE>
CC(=O)CCc1ccc2c(c1)OCCO2

>  <ASSAY VALUE>
-7.55% (inactive)

$$$$
>  <MOLECULE>
CC(C)OCCCN(Cn1c(=S)sc2ccccc21)Cn1c(=S)sc2ccccc21

>  <ASSAY VALUE>
85.9% (active)

$$$$
>  <MOLECULE>
Cc1ccc(C)c(NC(=O)c2ccc([N+](=O)[O-])cc2)c1

>  <ASSAY VALUE>
10% (inactive)

$$$$
>  <MOLECULE>
CC(=O)c1ccccc1[N+](=O)[O-]

>  <ASSAY VALUE>
21.7% (inactive)

$$$$
>  <MOLECULE>
CC(=O)OC1C=CC2Oc3ccc(C)cc3C1(C)O2 (centres undefined)

>  <ASSAY VALUE>
14.4% (inactive)

$$$$
>  <MOLECULE>
N#CC[N+]1(Cc2ccccn2)CCCC1

>  <ASSAY VALUE>
-13.8% (inactive)

$$$$
>  <MOLECULE>
N#CSC1C=CS(=O)(=O)C1 (centres undefined)

>  <ASSAY VALUE>
19.6% (inactive)

$$$$
>  <MOLECULE>
C1COCCN2CCOCCOCCN(CCO1)CCOCC2

>  <ASSAY VALUE>
-0.25% (inactive)

$$$$

Hello, the source for this data is PubChem BioAssay (NCI), in case you need it.
